Overview of reported PBM binding z-score across a group of sequences:
Test system: THRa homodimer (NR concentration 90 nM)
method: PBM binding z-score (relative to random genomic background probes); higher = stronger binding; sequences stand for … in GC…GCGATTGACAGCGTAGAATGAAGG
observed_property: PBM binding z-score

1) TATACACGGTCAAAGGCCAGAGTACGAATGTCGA = -0.253
2) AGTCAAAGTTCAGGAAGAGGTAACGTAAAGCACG = 0.341
3) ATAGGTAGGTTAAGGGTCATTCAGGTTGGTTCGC = 2.58
4) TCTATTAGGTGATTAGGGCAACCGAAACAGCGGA = 0.68
5) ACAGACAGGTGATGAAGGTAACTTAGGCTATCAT = 0.0402
6) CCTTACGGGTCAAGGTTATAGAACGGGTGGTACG = 0.782
7) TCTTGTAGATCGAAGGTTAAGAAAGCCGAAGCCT = -0.559
8) TCATATACGTAAAAGGTGAAAGTCGGTGTGGTAA = 0.293
9) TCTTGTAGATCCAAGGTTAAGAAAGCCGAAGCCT = 0.204
10) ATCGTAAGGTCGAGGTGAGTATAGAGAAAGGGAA = 2.18
11) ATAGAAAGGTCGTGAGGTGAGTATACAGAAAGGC = 1.99
12) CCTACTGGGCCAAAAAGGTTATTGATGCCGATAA = -0.462

---

System: PPARg:RXRa 90nM:30nM, anti-RXR (NR concentration 90 nM, RXRa partner concentration 30 nM)
method: PBM binding z-score (relative to random genomic background probes); higher = stronger binding; sequences stand for … in GC…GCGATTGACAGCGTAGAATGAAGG
Measured PBM binding z-score determines class: LOW (below 0.4), MEDIUM (0.4 to below 4), HIGH (4 or more)

1) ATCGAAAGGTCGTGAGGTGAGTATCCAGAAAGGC = MEDIUM
2) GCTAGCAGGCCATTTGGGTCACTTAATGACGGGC = LOW
3) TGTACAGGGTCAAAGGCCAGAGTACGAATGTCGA = HIGH
4) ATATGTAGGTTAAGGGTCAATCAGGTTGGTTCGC = HIGH
5) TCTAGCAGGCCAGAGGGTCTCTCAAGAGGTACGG = MEDIUM
6) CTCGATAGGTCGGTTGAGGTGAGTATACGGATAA = LOW
7) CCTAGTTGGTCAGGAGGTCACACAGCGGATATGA = MEDIUM
8) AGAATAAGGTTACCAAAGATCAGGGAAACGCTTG = MEDIUM
9) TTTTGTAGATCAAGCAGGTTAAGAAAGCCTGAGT = LOW
10) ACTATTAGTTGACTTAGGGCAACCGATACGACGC = LOW

---

Overview of reported PBM binding z-score across a group of sequences:
Tested on: LXRa:RXRa (NR concentration 270 nM, RXRa partner concentration 90 nM)
method: PBM binding z-score (relative to random genomic background probes); higher = stronger binding; sequences stand for … in GC…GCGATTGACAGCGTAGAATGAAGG
observed_property: PBM binding z-score

1. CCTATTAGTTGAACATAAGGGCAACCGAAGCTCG = 0.518
2. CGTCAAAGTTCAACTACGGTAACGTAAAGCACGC = 6.61
3. CCTACTGGGCCGAAGGTCATTGATTCCAATGCTC = 2.47
4. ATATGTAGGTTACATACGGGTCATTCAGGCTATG = 4.56
5. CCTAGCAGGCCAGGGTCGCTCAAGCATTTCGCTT = 1.49
6. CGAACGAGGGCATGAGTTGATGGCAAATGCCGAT = 0.315

Just for reference, the supplement of paper PMC6555819 is where these values come from.
